# tested_target: UniProt:Q01726
# Sequence (Q01726 whole entry): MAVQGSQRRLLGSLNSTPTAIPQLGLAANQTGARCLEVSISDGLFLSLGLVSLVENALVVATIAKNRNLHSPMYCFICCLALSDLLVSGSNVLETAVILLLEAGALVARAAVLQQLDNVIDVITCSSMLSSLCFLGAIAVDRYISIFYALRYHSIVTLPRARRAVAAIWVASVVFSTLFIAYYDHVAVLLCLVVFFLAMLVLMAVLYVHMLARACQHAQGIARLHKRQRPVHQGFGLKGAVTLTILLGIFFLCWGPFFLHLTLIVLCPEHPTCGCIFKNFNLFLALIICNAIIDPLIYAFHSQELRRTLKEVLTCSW
# method: Agonist activity in HEK293 cells transfected with human MC1R by cAMP accumulation
observable: EC50 (nM)
Give bare numbers, in nM.

stdin: Param item = CCCCC(=O)NC1(C(=O)N[C@H](Cc2ccccc2)C(=O)N[C@@H](CCCN=C(N)N)C(=O)N[C@@H](Cc2ccc3ccccc3c2)C(=O)NCC(N)=O)CCc2c(Br)cccc2C1 (stereo partly specified) ; retrieve measured EC50.
stdout: 2900

====

# tested_target: Melanocortin receptor 4 (Homo sapiens)
# method: Agonist activity in HEK293 cells transfected with human MC4R by cAMP accumulation
# Assay type: functional, cell-based
# test_context: hek293
observable: pEC50
One number for each entry, as −log10 of the molar value.

stdin: // pEC50 lookup, key: CCCC(=O)N[C@]1(C(=O)N[C@H](Cc2ccccc2)C(=O)N[C@@H](CCCN=C(N)N)C(=O)NC(Cc2ccc3ccccc3c2)C(=O)N[C@@H](C)C(N)=O)CC[C@H](c2ccccc2)CC1 (stereo partly specified)
stdout: 6.66

====

# tested_target: Melanocortin receptor 4 (Homo sapiens, UniProt P32245)
# Sequence (P32245 whole entry): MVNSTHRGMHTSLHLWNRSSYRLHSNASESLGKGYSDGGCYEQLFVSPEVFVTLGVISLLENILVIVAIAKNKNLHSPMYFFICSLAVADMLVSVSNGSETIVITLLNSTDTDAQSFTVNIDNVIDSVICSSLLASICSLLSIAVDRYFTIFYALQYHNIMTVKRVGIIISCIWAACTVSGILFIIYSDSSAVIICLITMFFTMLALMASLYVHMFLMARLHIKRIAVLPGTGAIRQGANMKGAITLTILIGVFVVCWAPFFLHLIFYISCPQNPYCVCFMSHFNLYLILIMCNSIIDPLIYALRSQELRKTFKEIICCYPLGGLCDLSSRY
# method: Agonist activity at human MC4R at 100 nM
# Type: functional
observable: Activity

compound: CCCC(=O)N[C@]1(C(=O)N[C@H](Cc2ccccc2)C(=O)N[C@@H](CCCN=C(N)N)C(=O)NC(Cc2ccc3ccccc3c2)C(=O)NCCC(N)=O)CC[C@H](c2ccccc2)CC1 (some centres undefined)
Activity: > 30%
//
compound: CCCC(=O)NC1(C(=O)N[C@H](Cc2ccccc2)C(=O)N[C@@H](CCCN=C(N)N)C(=O)NC(Cc2ccc3ccccc3c2)C(=O)NCCC(N)=O)CCc2c(Br)cccc2C1 (some centres undefined)
Activity: 32%
//
compound: CCCC(=O)NC1(C(=O)N[C@H](Cc2ccccc2)C(=O)N[C@@H](CCCN=C(N)N)C(=O)NC(Cc2ccc3ccccc3c2)C(=O)Nc2ccccc2C(N)=O)CCc2c(Br)cccc2C1 (some centres undefined)
Activity: > 30%

Provide the reported Activity of each entry below, same order.
1. CCCC(=O)NC1(C(=O)N[C@H](Cc2ccccc2)C(=O)N[C@@H](CCCN=C(N)N)C(=O)NC(Cc2ccc3ccccc3c2)C(=O)NCC(N)=O)CCc2c(Br)cccc2C1 (some centres undefined)
2. CCCC(=O)N[C@]1(C(=O)N[C@H](Cc2ccccc2)C(=O)N[C@@H](CCCN=C(N)N)C(=O)N[C@@H](Cc2ccc3ccccc3c2)C(=O)NCC(N)=O)CC[C@H](c2ccccc2)CC1
3. CCCC(=O)N[C@]1(C(=O)N[C@H](Cc2ccccc2)C(=O)N[C@@H](CCCN=C(N)N)C(=O)NC(Cc2ccc3ccccc3c2)C(=O)NCc2cccc(C(N)=O)c2)CC[C@H](c2ccccc2)CC1 (some centres undefined)
4. CCCC(=O)N[C@]1(C(=O)N[C@H](Cc2ccccc2)C(=O)N[C@@H](CCCN=C(N)N)C(=O)NC(Cc2ccc3ccccc3c2)C(=O)Nc2ccccc2C(N)=O)CC[C@H](c2ccccc2)CC1 (some centres undefined)
5. CCCC(=O)N[C@]1(C(=O)N[C@H](Cc2ccccc2)C(=O)N[C@@H](CCCN=C(N)N)C(=O)NC(Cc2ccc3ccccc3c2)C(=O)N[C@@H](C)C(N)=O)CC[C@H](c2ccccc2)CC1 (some centres undefined)

stdout:
1. 30%
2. > 30%
3. > 30%
4. > 30%
5. > 30%

stdin: Which Activity is listed for CCCC(=O)N[C@]1(C(=O)N[C@H](Cc2ccccc2)C(=O)N[C@@H](CCCN=C(N)N)C(=O)NC(Cc2ccc3ccccc3c2)C(=O)NCc2ccc(C(N)=O)cc2)CC[C@H](c2ccccc2)CC1 (some centres undefined) ?
stdout: > 30%
